B1: glmS ribozyme (parent)
chain: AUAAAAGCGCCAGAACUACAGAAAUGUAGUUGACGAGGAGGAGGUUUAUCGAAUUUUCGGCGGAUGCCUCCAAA

Variants of: B1
Assay comment: self-cleavage kobs at 10000 uM GlcN6P; higher = faster cleavage; RNA array
Assay conditions: with glucosamine-6-phosphate
Variants at the floor of the assay were thinned out.
Please go through the items and note down their self-cleavage kobs at 10000 uM GlcN6P.

Recorded self-cleavage kobs at 10000 uM GlcN6P, per entry:
G9U G40C | < 1e-05 s⁻¹
G38A A52C | < 1e-05 s⁻¹
A14G G35A | < 1e-05 s⁻¹
C34U G40U A42U | < 1e-05 s⁻¹
A42G U56A G60U | < 1e-05 s⁻¹
C16U G29U G40U C50U | < 1e-05 s⁻¹

Give self-cleavage kobs at 10000 uM GlcN6P for all variants that follow.
1. A33C G43C
2. G32C C34U
3. G32C G35A G51U
4. G9U A14C A52C

**A:**
< 1e-05 s⁻¹
< 1e-05 s⁻¹
< 1e-05 s⁻¹
< 1e-05 s⁻¹

Lab book: self-cleavage kobs at 10000 uM GlcN6P of G41C G66C C68A noted as < 1e-05 s⁻¹
